- assay info: Cytotoxicity against mouse RAW264.7 cells
- Assay type: cell-based
Please go through the items and note down their GI50.

Recorded GI50 (molecule O=S(=O)(/C=C/c1ccccc1)Oc1cccc(Oc2ccccc2)c1 ): > 80 µM

Recorded GI50 (molecule O=S(=O)(/C=C/c1ccccc1)Oc1ccc(OCc2ccccc2)cc1 ): > 80 µM

Recorded GI50 (molecule O=Cc1ccc(OS(=O)(=O)/C=C/c2ccccc2)cc1 ): > 80 µM

Recorded GI50 (molecule Cc1ccc(OS(=O)(=O)/C=C/c2ccccc2)cc1 ): > 80 µM

Recorded GI50 (molecule O=S(=O)(/C=C/c1ccccc1)Oc1ccccc1 ): > 80 µM

Recorded GI50 (molecule O=S(=O)(/C=C/c1ccccc1)Oc1c(Cl)cc(Cl)cc1Cl ): > 80 µM

----------
Please go through the items and note down their pIC50.
- target system: Peroxisome proliferator-activated receptor gamma (Homo sapiens)
- Sequence (P37231 whole entry, the tested form may be a part): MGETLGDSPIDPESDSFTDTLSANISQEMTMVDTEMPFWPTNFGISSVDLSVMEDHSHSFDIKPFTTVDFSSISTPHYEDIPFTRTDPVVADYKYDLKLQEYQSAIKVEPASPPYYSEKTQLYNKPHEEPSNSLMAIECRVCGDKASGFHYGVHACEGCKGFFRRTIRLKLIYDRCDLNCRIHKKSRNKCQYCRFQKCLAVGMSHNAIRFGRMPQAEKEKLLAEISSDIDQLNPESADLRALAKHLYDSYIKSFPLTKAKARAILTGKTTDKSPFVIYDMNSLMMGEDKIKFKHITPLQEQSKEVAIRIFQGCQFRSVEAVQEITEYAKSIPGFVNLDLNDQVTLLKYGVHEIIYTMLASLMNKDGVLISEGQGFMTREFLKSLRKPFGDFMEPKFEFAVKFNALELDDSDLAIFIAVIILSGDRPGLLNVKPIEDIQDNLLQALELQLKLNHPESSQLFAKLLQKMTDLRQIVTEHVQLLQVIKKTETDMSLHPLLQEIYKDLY
- assay info: Displacement of [3H]BRL49653 from PPARgamma ligand binding domain by scintillation proximity assay
Convention used: pIC50 is expressed as -log10 of the molar concentration.

Recorded pIC50 (molecule COc1ccc(OS(=O)(=O)/C=C/c2ccccc2)cc1 ): 5.89

Recorded pIC50 (molecule O=S(=O)(/C=C/c1ccccc1)Oc1ccc2ccccc2c1 ): 5.96

Recorded pIC50 (molecule O=S(=O)(/C=C/c1ccccc1)Oc1cccc(Oc2ccccc2)c1 ): 6.42

Recorded pIC50 (molecule O=S(=O)(/C=C/c1ccccc1)Oc1ccc(OCc2ccccc2)cc1 ): 6.15

Recorded pIC50 (molecule O=C(O)c1cccc(OS(=O)(=O)/C=C/c2ccccc2)c1 ): 4.87

Recorded pIC50 (molecule O=S(=O)(/C=C/c1ccccc1)Oc1ccccc1 ): 5.88

Recorded pIC50 (molecule CC(=O)Nc1ccc(OS(=O)(=O)/C=C/c2ccccc2)cc1 ): 4.97

Recorded pIC50 (molecule Cc1ccc(OS(=O)(=O)/C=C/c2ccccc2)cc1 ): 6.39

Recorded pIC50 (molecule Cc1cccc(OS(=O)(=O)/C=C/c2ccccc2)c1 ): 5.93

Recorded pIC50 (molecule O=Cc1ccc(OS(=O)(=O)/C=C/c2ccccc2)cc1 ): 5.68

Recorded pIC50 (molecule O=S(=O)(/C=C/c1ccccc1)Oc1c(Cl)cc(Cl)cc1Cl ): 5.84

Recorded pIC50 (molecule CCOC(=O)c1ccc(OS(=O)(=O)/C=C/c2ccccc2)cc1 ): 6.13

Recorded pIC50 (molecule O=S(=O)(/C=C/c1ccccc1)Oc1ccc(Cl)cc1 ): 6.52

----------
- Tested on: RAW264.7
- assay info: Suppression of LPS/IFN-gamma-stimulated NO production in mouse RAW264.7 cells at 10 uM
- Type: functional
endpoint name: Activity (%)
Write the answer as a number in %, unit excluded.

Recorded Activity (compound O=C(O)c1cccc(OS(=O)(=O)CCc2ccccc2)c1 ): 6

Recorded Activity (compound O=S(=O)(CCc1ccccc1)Oc1ccc(Cl)cc1 ): 4

Recorded Activity (compound O=S(=O)(CCc1ccccc1)Oc1c(Cl)cc(Cl)cc1Cl ): 10

Recorded Activity (compound O=S(=O)(CCc1ccccc1)Oc1ccccc1 ): 2

Recorded Activity (compound NS(=O)(=O)c1ccc(NS(=O)(=O)/C=C/c2ccccc2)cc1 ): 0

Recorded Activity (compound O=S(=O)(/C=C/c1ccccc1)Nc1ccc(Br)cc1 ): 5

Recorded Activity (compound COc1ccc(NS(=O)(=O)/C=C/c2ccccc2)cc1 ): 5

Recorded Activity (compound O=S(=O)(Cc1ccccc1)Oc1ccccc1 [PHENYL PHENYLMETHANESULFONATE] ): 3

Recorded Activity (compound O=C(O)c1ccc(NS(=O)(=O)/C=C/c2ccccc2)cc1 ): 2

Recorded Activity (compound CCOc1ccc(NS(=O)(=O)/C=C/c2ccccc2)cc1 ): 0

Recorded Activity (compound O=S(=O)(/C=C/c1ccccc1)Nc1ccccc1 ): 4

Recorded Activity (compound O=S(=O)(CCc1ccccc1)Oc1ccc2ccccc2c1 ): 6

Recorded Activity (compound O=S(=O)(Cc1ccccc1)Oc1ccc2ccccc2c1 ): 7

Recorded Activity (compound COc1cccc(NS(=O)(=O)/C=C/c2ccccc2)c1 ): 12

Recorded Activity (compound CCS(=O)(=O)Oc1cccc(Oc2ccccc2)c1 ): 11

Recorded Activity (compound Cc1ccc(NS(=O)(=O)/C=C/c2ccccc2)cc1 ): 8

Recorded Activity (compound O=S(=O)(Cc1ccccc1)Oc1ccccc1Cl ): 0

Recorded Activity (compound Cc1cccc(OS(=O)(=O)CCc2ccccc2)c1 ): 0

Recorded Activity (compound O=C(O)c1cccc(NS(=O)(=O)/C=C/c2ccccc2)c1 ): 1

----------
- assay info: Cytotoxicity against mouse RAW264.7 cells
- Type: cell-based
Please go through the items and note down their GI50.

Recorded GI50 (compound O=C(O)c1cccc(OS(=O)(=O)/C=C/c2ccccc2)c1 ): > 80 µM

Recorded GI50 (compound O=S(=O)(/C=C/c1ccccc1)Oc1ccc2ccccc2c1 ): > 80 µM

Recorded GI50 (compound CCOC(=O)c1ccc(OS(=O)(=O)/C=C/c2ccccc2)cc1 ): > 80 µM

Recorded GI50 (compound O=S(=O)(/C=C/c1ccccc1)Oc1ccc(Cl)cc1 ): 75.3 µM

Recorded GI50 (compound Cc1cccc(OS(=O)(=O)/C=C/c2ccccc2)c1 ): 62.5 µM

Recorded GI50 (compound CC(=O)Nc1ccc(OS(=O)(=O)/C=C/c2ccccc2)cc1 ): > 80 µM

Cited source for all entries: ChEMBL document CHEMBL1152223
